From: ChEMBL document CHEMBL1201861

Tested on: YKG-1;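 also: cell growth inhibition, read out with a viability assay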
protocol.notes: cells
Assay type: functional, cell-based
stated.conditions: Homo sapiens
Description: SANGER: Inhibition of human YKG-1 cell growth in a cell viability assay.
pIC50: −log10 of the molar value.
The following compounds are shown together with reported pIC50 values.

{"given.smiles": "NC(=O)c1ccc(N(C(N)=O)c2c(F)cccc2F)nc1-c1ccc(F)cc1F", "readout.qualifier": "<", "pIC50": 5.70}
{"given.smiles": "O=C(NCCCNc1nc(Nc2cccc(NC(=O)N3CCCC3)c2)ncc1I)c1cccs1", "readout.qualifier": "=", "pIC50": 5.75}
{"given.smiles": "NC(=O)Nc1cc(-c2cccc(F)c2)sc1C(=O)N[C@H]1CCCNC1", "readout.qualifier": "=", "pIC50": 5.80}

###

Tested on: EHEB;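 also: growth inhibition of human EHEB cells, read out with a cell viability assay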
protocol.notes: cells
Assay type: functional, cell-based
stated.conditions: Homo sapiens
Description: SANGER: Inhibition of human EHEB cell growth in a cell viability assay.
pIC50: −log10 of the molar value.

{"compound": "COc1cc(N2CCC(N3CCN(C)CC3)CC2)ccc1Nc1ncc(Cl)c(Nc2ccccc2S(=O)(=O)C(C)C)n1 [TAE-684]", "pIC50": "< 5.70"}
{"compound": "Nc1ccccc1NC(=O)c1ccc(CNC(=O)OCc2cccnc2)cc1 [ENTINOSTAT]", "pIC50": 6.03}
{"compound": "CC(C)C[C@H](NC(=O)[C@H](Cc1ccccc1)NC(=O)c1cnccn1)B(O)O [BORTEZOMIB]", "pIC50": 8.78}
{"compound": "Cc1cc(N2CCOCC2)cc2[nH]c(-c3c(NC[C@@H](O)c4cccc(Cl)c4)cc[nH]c3=O)nc12", "pIC50": "< 5.29"}
{"compound": "C[C@@H](Oc1cc(-c2cnn(C3CCNCC3)c2)cnc1N)c1c(Cl)ccc(F)c1Cl [CRIZOTINIB]", "pIC50": "< 5.70"}
{"compound": "NC(=O)c1cccc(-c2cc(Nc3ccc(OC(F)(F)F)cc3)ncn2)c1", "pIC50": "< 5.89"}
{"compound": "C=CC(=O)N1CCCC(Nc2nc(Nc3ccc(N(C)C(=O)CC)cc3)nc3[nH]cnc23)C1 (centres undefined)", "pIC50": "< 4.99"}
{"compound": "Cc1ccc(C(=O)Nc2ccc(CN3CCN(C)CC3)c(C(F)(F)F)c2)cc1C#Cc1cnc2cccnn12 [PONATINIB]", "pIC50": "< 6.29"}
{"compound": "Cc1ccc(NC(=O)c2ccc(CN3CCN(C)CC3)cc2)cc1Nc1nccc(-c2cccnc2)n1 [IMATINIB]", "pIC50": "< 5.70"}

###

Test system: NCI-H2122
protocol.notes: cells
Assay type: functional, cell-based
stated.conditions: Homo sapiens
Description: SANGER: Inhibition of human NCI-H2122 cell growth in a cell viability assay.
The following molecules are shown together with reported IC50 values.
property: IC50

{"molecule": "OC[C@H](Cc1ccccc1)Nc1nc(Oc2ccc3c(c2)CCC3)nc2c1ncn2Cc1ccc(-c2ccccc2)cc1", "property": "IC50", "obs.value": "2720 nM"}
{"molecule": "NC1(c2ccc(-c3nc4ccn5c(=O)[nH]nc5c4cc3-c3ccccc3)cc2)CCC1 [MK-2206]", "property": "IC50", "obs.value": "> 4000 nM"}
{"molecule": "CC1(C)CCC(c2ccc(Cl)cc2)=C(CN2CCN(c3ccc(C(=O)NS(=O)(=O)c4ccc(N[C@H](CCN5CCOCC5)CSc5ccccc5)c(S(=O)(=O)C(F)(F)F)c4)cc3)CC2)C1 [NAVITOCLAX]", "property": "IC50", "obs.value": "> 2000 nM"}
{"molecule": "CN(NC(=O)CC(=O)NN(C)C(=S)c1ccccc1)C(=S)c1ccccc1 [ELESCLOMOL]", "property": "IC50", "obs.value": "130 nM"}
{"molecule": "COC(=O)[C@H](CCSC)NC(=O)c1ccc(NC[C@@H](N)CS)cc1-c1ccccc1", "property": "IC50", "obs.value": "> 1020 nM"}
{"molecule": "NC(=O)c1ccc(N(C(N)=O)c2c(F)cccc2F)nc1-c1ccc(F)cc1F [VX-702]", "property": "IC50", "obs.value": "> 2000 nM"}
{"molecule": "CS(=O)(=O)N1CCN(Cc2cc3nc(-c4cccc5[nH]ncc45)nc(N4CCOCC4)c3s2)CC1 [PICTILISIB]", "property": "IC50", "obs.value": "> 4000 nM"}
{"molecule": "O=C(NCCCNc1nc(Nc2cccc(NC(=O)N3CCCC3)c2)ncc1I)c1cccs1 [BX-795]", "property": "IC50", "obs.value": "> 5000 nM"}
{"molecule": "CCCCCCCCCCCC1=C(O)C(=O)C=C(O)C1=O [EMBELIN]", "property": "IC50", "obs.value": "2810 nM"}
{"molecule": "CC1=C(/C=C/C(C)=C/C=C/C(C)=C/C(=O)O)C(C)(C)CCC1 [TRETINOIN]", "property": "IC50", "obs.value": "> 10000 nM"}
{"molecule": "COc1ccc(-c2cc3nccn3c(Nc3ncccc3C(N)=O)n2)cc1OC", "property": "IC50", "obs.value": "1280 nM"}
